Where do these numbers come from? They come from PubChem BioAssay AID1851.

- Test System: Cytochrome P450 2C19 (Homo sapiens) (UniProt P33261)
- Sequence (P33261 whole entry, looked up): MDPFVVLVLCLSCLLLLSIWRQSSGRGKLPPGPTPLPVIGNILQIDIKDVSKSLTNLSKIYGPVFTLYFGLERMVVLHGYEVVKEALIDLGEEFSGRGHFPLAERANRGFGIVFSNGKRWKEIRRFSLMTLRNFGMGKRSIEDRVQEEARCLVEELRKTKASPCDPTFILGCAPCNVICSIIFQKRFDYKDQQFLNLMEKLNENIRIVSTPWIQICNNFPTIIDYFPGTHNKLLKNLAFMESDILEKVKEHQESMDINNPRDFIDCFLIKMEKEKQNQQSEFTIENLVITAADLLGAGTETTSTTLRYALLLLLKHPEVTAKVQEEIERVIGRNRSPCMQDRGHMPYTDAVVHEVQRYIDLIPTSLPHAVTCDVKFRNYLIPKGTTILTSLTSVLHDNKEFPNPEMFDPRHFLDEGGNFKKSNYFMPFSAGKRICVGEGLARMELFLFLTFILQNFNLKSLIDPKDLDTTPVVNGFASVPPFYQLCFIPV
- Assay Notes: Cytochrome panel assay with activity outcomes
- Measurement Context: recombinant CYP, pro-luciferin dealkylation, luminescence, p450-cyp2c19; series mostly up to 57.1 µM
The campaign covered roughly 16,000 compounds. About 5,800 (36%) were called active. Not shown: some 23% with an inconclusive outcome. The list shows a part of the results.
Result Type: AC50

Answered examples (10):
| Compound | AC50 |
| --- | --- |
| Cn1c(=O)c(-c2cccs2)nc2cnc(Oc3ccccc3)nc21 | inactive |
| N#Cc1c2c(c(-n3cnc4ccccc43)n3c1nc1ccccc13)CCC2 | inactive |
| CNC(=O)C(=O)NCCc1ccc(Cl)cc1 | 1.12 µM (active) |
| COC(=O)c1cc2c(ccn2-c2ccc(F)cc2)n1CC(C)C | 3.16 µM (active) |
| O=c1cnc2cnc(Oc3ccccc3)nc2n1CCc1ccccc1 | 6.31 µM (active) |
| O=C(NCCCN1CCc2ccccc2C1)C1CCN(S(=O)(=O)N2CCCC2)CC1 | inactive |
| COCCn1c(=O)c(-c2cccs2)nc2cnc(Oc3ccccc3)nc21 | 10 µM (active) |
| COCCn1c(=O)cnc2cnc(Oc3ccc(OC)cc3)nc21 | inactive |
| c1ccc2c(c1)ncn2-c1ncnc2sc3c(c12)CCCC3 | 8.91 µM (active) |
| O=C(NC1CCCc2ccccc21)c1ccc(=O)[nH]c1 (stereo not drawn) | inactive |

Respectfully, I request AC50 for each entry included below.
1. COC(=O)c1cc2c(ccn2-c2ccc(F)cc2)n1C(C)C
2. Cc1cc(NC(=O)NC(=O)c2ccc(F)cc2F)n[nH]1
3. O=C(NC1CCCc2ccccc21)C1CCN(S(=O)(=O)N2CCCCCC2)CC1 (stereo not drawn)

# output
1. 2 µM (active)
2. 11.2 µM (active)
3. 17.8 µM (active)

Respectfully, I request AC50 for each entry included below.
1. COc1cc(C(=O)Oc2ccccc2/C=N/NC(=O)c2ccc(C)cc2)cc(OC)c1OC
2. O=c1oc2cc(Oc3c([N+](=O)[O-])cc(C(F)(F)F)cc3[N+](=O)[O-])ccc2c2c1CCCC2
3. O=C(CC(=O)c1ccncc1)c1ccccc1
4. COCCn1c(=O)cnc2cnc(Oc3ccccc3)nc21
5. COCCCNC(=O)C(=O)N/N=C/c1ccc(OCC(=O)Nc2cccc(Cl)c2C)c(OC)c1

# output
1. 0.398 µM (active)
2. 2.82 µM (active)
3. 0.398 µM (active)
4. 10 µM (active)
5. 31.6 µM (active)

Respectfully, I request AC50 for each entry included below.
1. Cn1c(=O)c(-c2cc(F)cc(F)c2)nc2cnc(N3CCOCC3)nc21
2. CCNc1ncc2nc(-c3cc(F)cc(F)c3)c(=O)n(CCOC)c2n1
3. Cc1cc(C)c(NC(=O)NC(=O)c2ccc(F)cc2)c(C)n1
4. O=C(NCCc1ccc(Cl)cc1)c1ncn[nH]1
5. COc1ccc(Oc2ncc3ncc(=O)n(CCc4ccccc4)c3n2)cc1

# output
inactive
inactive
inactive
inactive
inactive

====

- Test System: Cytochrome P450 2C19 (Homo sapiens) (UniProt P33261)
- Assay Notes: Cytochrome panel assay with activity outcomes
- Measurement Context: recombinant CYP, pro-luciferin dealkylation, luminescence, p450-cyp2c19; series mostly up to 57.1 µM
In all, about 16,000 compounds went through this assay and about 5,800 (36%) were called active. Inconclusive results (about 23%) are left out. Calls come from the whole dose curve; as a rule, active = well fitted curve in the direction sought with a large enough effect; inconclusive = small, poorly fitted or top-dose-only effect, or effect the other way; inactive = no such curve, though single readings can be large or run the other way. The list shows a part of the results.
Give one outcome, nothing more. List: true for active, false for inactive

Here are 6 compounds together with their reported answers.
| Compound | Assigned Category |
| --- | --- |
| COc1cnc(-c2ccccn2)nc1Oc1ccc(Cl)c2ccccc12 | true |
| O=C(c1ccco1)N1CCC2(CCCN(Cc3ccccc3)C2)CC1 | false |
| CCCC[C@@H]1C[C@H]1C(NC(=O)c1ccc(-c2ccccc2)cc1)c1ccc(-c2ccccc2)cc1 (stereo not given in full) | false |
| O=C(N/N=C/c1ccc(Cl)cc1Cl)Nc1ccccc1 | true |
| CCCC[C@@H]1C[C@H]1C(NC(=O)c1ccco1)c1ccc(-c2ccccc2)cc1 (stereo not given in full) | true |
| O=C(c1cccc(F)c1)N1CCC2(CC1)CN(Cc1ccccc1)C2 | false |

# input Dear colleague, could you share the recorded outcome for O=C(c1cccc(F)c1)N1CCC2(CCCN(Cc3cc(C(F)(F)F)cc(C(F)(F)F)c3)C2)CC1 when you have a moment?
# output false

# input Dear colleague, could you share the recorded outcome for N#Cc1ccc(CN2CCCC3(CCN(C(=O)c4cccc(F)c4)CC3)C2)cc1 when you have a moment?
# output false

# input Dear colleague, could you share the recorded outcome for CCC[C@@H]1C[C@@]1(CCC)C(NS(=O)(=O)c1cccc2cccnc12)c1ccc(Cl)cc1 (stereo not given in full) when you have a moment?
# output true

# input Dear colleague, could you share the recorded outcome for O=C(c1ccco1)N1CCC2(CCCN(Cc3ccncc3)C2)CC1 when you have a moment?
# output true

====

- Test System: Cytochrome P450 2C19 (Homo sapiens)
- Assay Notes: Cytochrome panel assay with activity outcomes
- Measurement Context: recombinant CYP, pro-luciferin dealkylation, luminescence, p450-cyp2c19; series mostly up to 57.1 µM
In all, about 16,000 compounds went through this assay and about 5,800 (36%) were called active. Another 23% or so got no clear call; they are omitted. The list shows a part of the results.
Result Type: AC50

| Compound | Value Measured |
| --- | --- |
| COc1cc(N=c2ssnc2Cl)cc(OC)c1OC | 1.12 µM (active) |
| Cn1c(Cc2cccc3ccccc23)nnc1SCC(=O)N1CCN(c2ccccc2)CC1 | 25.1 µM (active) |
| O=C(O)c1ccc(SSc2ccc(C(=O)O)cn2)nc1 | 2.51 µM (active) |
| Cn1nc(C(F)(F)F)c(C(=O)Nc2ccc(F)cc2F)c1Sc1cccc(C(F)(F)F)c1 | 0.501 µM (active) |

Respectfully, I request AC50 for each entry included below.
1. CCOc1ccc(-c2nn(-c3ccccc3)cc2/C=C2\SC(N)=NC2=O)cc1C
2. C=CCN1CCc2c(cc(O)c(O)c2Cl)[C@H](c2ccccc2)C1
3. O=c1cc(CSc2nnc(-c3cccnc3)n2-c2ccccc2F)nc2sccn12
4. CC(C)(C)NS(=O)(=O)c1ccc(NC(=O)c2cc(-c3ccccc3)nc3ccccc23)cc1
5. COc1cccc(CNc2ccc(F)c(Cl)c2)c1O
6. O=P(Cc1cc[n+]([O-])cc1)(c1ccccc1)c1ccccc1

# output
1. 11.2 µM (active)
2. inactive
3. inactive
4. 2.82 µM (active)
5. 3.16 µM (active)
6. 15.8 µM (active)

====

- Test System: Cytochrome P450 2C19 (Homo sapiens)
- Assay Notes: Cytochrome panel assay with activity outcomes; on activity, negative = inhibition: on the % scale 0 is the no-effect control and ±100 the full control effect
- Measurement Context: recombinant CYP, pro-luciferin dealkylation, luminescence, p450-cyp2c19; series mostly up to 57.1 µM
The campaign covered roughly 16,000 compounds. About 5,800 (36%) were called active. Another 23% or so got no clear call; they are omitted. Some of the results follow.
What activity, negative = inhibition was measured for each of the following?

Answered examples (5):
| Compound | Value Measured |
| --- | --- |
| CN(N=O)c1ccc(/C=C\c2ccnc3ccccc23)cc1 | 14.4% [at 11.4 µM] (inactive) |
| O=C(O)[C@H](/C=C\c1ccccc1)c1ccccc1 | -22.1% [at 11.4 µM] (inactive) |
| CN(C)CCCN1CCC2(CCC(C(C)(C)C)CC2)CC1 | 40.8% [at 11.4 µM] (inactive) |
| OC1CC2CC[C@H](C1)N2CCCN1c2ccccc2Sc2ccc(Cl)cc21 (some centres not stated) | -19.5% [at 11.4 µM] (inactive) |
| COc1ccc2c(c1)N(CC[C@H]1CCCCN1C)c1ccccc1S2 | -12% [at 11.4 µM] (inactive) |

Respectfully, I request activity, negative = inhibition for each entry included below.
1. O=S(=O)(c1ccccc1)N1CN2CN(C1)CN(S(=O)(=O)c1ccccc1)C2
2. O=C(O)C[C@H](NC(=O)CP(=O)(O)O)C(=O)O.[NH-][C@@H]1CCCC[C@@H]1[NH-].[Pt]
3. N[C@@H](CSCc1ccccc1)C(=O)O

# output
1. -18.2% [at 11.4 µM] (inactive)
2. -14.4% [at 11.4 µM] (inactive)
3. -4.77% [at 11.4 µM] (inactive)

Respectfully, I request activity, negative = inhibition for each entry included below.
1. Nc1ccccc1CCCC(=O)O
2. O=C(O)c1ccccc1C1c2ccccc2Oc2ccccc21
3. O=C(O)CCCSc1nc2ccccc2s1
4. NNS(=O)(=O)c1cc(C(=O)O)cc(C(=O)O)c1

# output
["-13.9% [at 11.4 µM] (inactive)", "9.43% [at 11.4 µM] (inactive)", "20.2% [at 11.4 µM] (inactive)", "-25.2% [at 11.4 µM] (inactive)"]
